The following compounds are listed with their measured IC50 values.
# assay.system: JAK1 (Homo sapiens (Human), UniProt P23458)
# Sequence (P23458 whole entry): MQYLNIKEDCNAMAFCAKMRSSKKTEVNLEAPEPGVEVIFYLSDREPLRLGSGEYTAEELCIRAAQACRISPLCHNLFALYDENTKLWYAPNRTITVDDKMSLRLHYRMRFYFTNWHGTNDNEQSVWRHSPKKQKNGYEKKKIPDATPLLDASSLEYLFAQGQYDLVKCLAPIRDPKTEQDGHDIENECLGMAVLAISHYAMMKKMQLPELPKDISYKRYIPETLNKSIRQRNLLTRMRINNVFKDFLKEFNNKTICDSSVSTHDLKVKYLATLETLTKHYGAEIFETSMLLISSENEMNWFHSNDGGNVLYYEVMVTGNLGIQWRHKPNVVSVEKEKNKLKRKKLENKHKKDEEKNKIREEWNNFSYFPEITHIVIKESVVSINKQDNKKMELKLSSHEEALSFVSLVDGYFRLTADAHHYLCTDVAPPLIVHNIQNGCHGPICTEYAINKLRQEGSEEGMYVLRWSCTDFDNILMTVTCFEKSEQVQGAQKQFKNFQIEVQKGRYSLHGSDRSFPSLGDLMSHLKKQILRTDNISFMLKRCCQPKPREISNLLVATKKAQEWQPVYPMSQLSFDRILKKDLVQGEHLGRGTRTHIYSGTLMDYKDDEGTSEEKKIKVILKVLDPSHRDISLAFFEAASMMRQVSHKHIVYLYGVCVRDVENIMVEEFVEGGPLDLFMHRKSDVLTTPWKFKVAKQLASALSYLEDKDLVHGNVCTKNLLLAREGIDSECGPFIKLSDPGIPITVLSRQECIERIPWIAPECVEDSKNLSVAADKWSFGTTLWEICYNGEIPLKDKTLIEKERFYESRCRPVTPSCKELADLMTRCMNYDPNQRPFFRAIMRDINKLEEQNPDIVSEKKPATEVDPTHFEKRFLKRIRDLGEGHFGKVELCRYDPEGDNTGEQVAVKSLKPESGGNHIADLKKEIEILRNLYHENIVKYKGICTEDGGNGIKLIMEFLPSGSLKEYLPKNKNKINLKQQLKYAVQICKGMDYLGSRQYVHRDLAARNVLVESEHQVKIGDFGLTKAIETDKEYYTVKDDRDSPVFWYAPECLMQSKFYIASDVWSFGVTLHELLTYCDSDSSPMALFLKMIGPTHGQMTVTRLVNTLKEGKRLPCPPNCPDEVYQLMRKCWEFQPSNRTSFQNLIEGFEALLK
# procedure.text: Analysis of JAK1 activity inhibition ability (ADP-Glo Kinase Assay)
# Format: biochemical
# particulars: JAK1 enzyme, ADP-Glo luminescence, ATP 250 uM, IRS-itide substrate, 30° C. 40 minutes; read-out: IC50

Recorded results for 3 compounds are shown here.
>>> observed("CCS(=O)(=O)Nc1ccc(-c2nc(NC(=O)C3CC3)nc3[nH]ccc23)cc1F")
"20 to 200 nM"
>>> observed("CCc1cc(-c2cc(NC(=O)C3CC3)nc3[nH]ccc23)ccc1NS(=O)(=O)CC1(C#N)CC1")
"< 20 nM"
>>> observed("O=C(Nc1cc(-c2ccc(NC3CCN(C(=O)Nc4ccc(F)cc4F)CC3)cc2)c2cc[nH]c2n1)C1CC1")
"20 to 200 nM"

stdin: Give its IC50 value. Item: CC1CN(C(=O)c2cccc(Nc3ccccc3)c2)CC=C1c1cc(NC(=O)C2CC2)nc2[nH]ccc12 (centres unmarked)
stdout: > 200 nM

stdin: Give its IC50 value. Item: O=C(Nc1cc(C2=CCN(C(=O)CC(F)(F)F)CC2)c2cc[nH]c2n1)C1CC1
stdout: 20 to 200 nM

====

# assay.system: JAK1 (Homo sapiens (Human))
# procedure.text: Analysis of JAK1 activity inhibition ability (ADP-Glo Kinase Assay)
# Assay type: biochemical
# particulars: JAK1 enzyme, ADP-Glo luminescence, ATP 250 uM, IRS-itide substrate, 30° C. 40 minutes; read-out: IC50
pIC50: −log10 of the molar value.
endpoint.label: pIC50

Recorded results for 3 compounds are shown here.
>>> observed("O=C(Nc1cc(N2CC3CCC(C2)N3C(=O)NCC(F)(F)F)c2cc[nH]c2n1)C1CC1")
"> 7.70"
>>> observed("CC(C)(C)OC(=O)N1CC2CCC(C1)N2c1cc(NC(=O)C2CC2)nc2[nH]ccc12")
"< 6.70"
>>> observed("CC1CN(C(=O)c2ccc3c(c2)OCO3)CC=C1c1cc(NC(=O)C2CC2)nc2[nH]ccc12 (stereo not shown)")
"6.70 to 7.70"

stdin: Recorded pIC50 for O=C(Nc1cc(-c2ccc(NS(=O)(=O)CCCF)c(F)c2)c2cc[nH]c2n1)C1CC1 with JAK1 (Homo sapiens (Human)), please?
stdout: > 7.70

stdin: Recorded pIC50 for O=C(Nc1cc(-c2ccc(CNC3CCS(=O)(=O)CC3)cc2)c2cc[nH]c2n1)C1CC1 with JAK1 (Homo sapiens (Human)), please?
stdout: 6.70 to 7.70

stdin: Recorded pIC50 for O=C(Nc1cc(C2=CC3CCCC(C2)N3C(=O)c2ccc([N+](=O)[O-])cc2)c2cc[nH]c2n1)C1CC1 (stereo not shown) with JAK1 (Homo sapiens (Human)), please?
stdout: 6.70 to 7.70

stdin: Recorded pIC50 for O=C(Nc1cc(C2=CCC(NS(=O)(=O)N3CCOCC3)CC2)c2cc[nH]c2n1)C1CC1 (stereo not shown) with JAK1 (Homo sapiens (Human)), please?
stdout: > 7.70

stdin: Recorded pIC50 for O=C(Nc1cc(N2CCN(Cc3ccns3)CC2)c2cc[nH]c2n1)C1CC1 with JAK1 (Homo sapiens (Human)), please?
stdout: 6.70 to 7.70

====

# assay.system: JAK1 (Homo sapiens (Human), UniProt P23458)
# procedure.text: Analysis of JAK1 activity inhibition ability (ADP-Glo Kinase Assay)
# Assay type: biochemical
# particulars: JAK1 enzyme, ADP-Glo luminescence, ATP 250 uM, IRS-itide substrate, 30° C. 40 minutes; read-out: IC50
endpoint.label: IC50

Recorded results for 3 molecules are shown here.
>>> observed("Cc1cc(C(=O)NCC#N)ccc1-c1cc(NC(=O)C2CC2)nc2[nH]ccc12")
"20 to 200 nM"
>>> observed("N#CCC1(N2CC=C(c3cc(NC(=O)C4CC4)nc4[nH]ccc34)CC2)COC1")
"> 200 nM"
>>> observed("N#CCCCS(=O)(=O)Nc1cc(F)c(-c2cc(NC(=O)C3CC3)nc3[nH]ccc23)cc1F")
"20 to 200 nM"

Field: next molecule
stdin: Give its IC50 value. Item: N#CCC(=O)N1C2C=C(c3cc(NC(=O)C4CC4)nc4[nH]ccc34)CC1CC2 (stereo not shown)
stdout: < 20 nM

====

The following molecules are listed with their measured IC50 values.
# assay.system: JAK1 (Homo sapiens (Human))
# procedure.text: Analysis of JAK1 activity inhibition ability (ADP-Glo Kinase Assay)
# Assay type: biochemical
# particulars: JAK1 enzyme, ADP-Glo luminescence, ATP 250 uM, IRS-itide substrate, 30° C. 40 minutes; read-out: IC50

Recorded results for 7 molecules are shown here.
>>> observed("O=C(Nc1nc(-c2ccc(NS(=O)(=O)c3ccc(F)c(F)c3)c(F)c2)c2cc[nH]c2n1)C1CC1")
"20 to 200 nM"
>>> observed("CCS(=O)(=O)Nc1ccc(-c2cc(NC(=O)C3CC3)nc3c2ccn3C)cc1F")
"> 200 nM"
>>> observed("O=C(Nc1cc(C2=CC3CCC(C2)N3C(=O)NCC(F)(F)F)c2cc[nH]c2n1)C1CC1 (centres unmarked)")
"< 20 nM"
>>> observed("O=C(Nc1cc(-c2cnn(C3CN(S(=O)(=O)c4ccccc4)C3)c2)c2cc[nH]c2n1)C1CC1")
"20 to 200 nM"
>>> observed("O=C(Nc1cc(-c2ccc(CS(=O)(=O)N3CCOCC3)cc2)c2cc[nH]c2n1)C1CC1")
"> 200 nM"
>>> observed("CC(C)CCS(=O)(=O)Nc1ccc(-c2cc(NC(=O)C3CC3)nc3[nH]ccc23)cc1")
"< 20 nM"
>>> observed("CC1CN(C(=O)c2ccc(Cl)nc2)CC=C1c1cc(NC(=O)C2CC2)nc2[nH]ccc12 (centres unmarked)")
"20 to 200 nM"

Field: next molecule
stdin: Recorded IC50 for CCNC(=O)Nc1ccc(-c2nc(NC(=O)C3CC3)nc3[nH]ccc23)cc1 with JAK1 (Homo sapiens (Human)), please?
stdout: > 200 nM

====

# assay.system: JAK1 (Homo sapiens (Human), UniProt P23458)
# procedure.text: Analysis of JAK1 activity inhibition ability (ADP-Glo Kinase Assay)
# Type: biochemical
# particulars: JAK1 enzyme, ADP-Glo luminescence, ATP 250 uM, IRS-itide substrate, 30° C. 40 minutes; read-out: IC50
# Experimental: Test Example 1: Analysis of JAK1 Activity Inhibition Ability of Compound of Formula 1 (ADP-Glo™ Kinase Assay) A JAK inhibition ability of a compound according to the present invention was identified as follows. A control material and a test material were prepared for each concentration, in such a way that they were diluted by means of DMSO. […]
The following molecules are listed with their measured IC50 values.

stdin: Give its IC50 value. Item: CC(C)N(C)S(=O)(=O)Nc1ccc(-c2cc(NC(=O)C3CC3)nc3[nH]ccc23)cc1
stdout: 20 to 200 nM

stdin: Give its IC50 value. Item: N#CCC(=O)N1C2C=C(c3cc(NC(=O)C4CC4)nc4[nH]ccc34)CC1CCC2 (centres unmarked)
stdout: < 20 nM

stdin: Give its IC50 value. Item: O=C(Nc1cc(-c2ccc(C(=O)N3CCSCC3)cc2)c2cc[nH]c2n1)C1CC1
stdout: 20 to 200 nM

stdin: Give its IC50 value. Item: CCS(=O)(=O)Nc1ccc(-c2cc(NC(=O)C3CC3)nc3[nH]cc(C)c23)cc1
stdout: 20 to 200 nM

stdin: Give its IC50 value. Item: O=C(Nc1cc(-c2ccc(NS(=O)(=O)N3CCOCC3)cc2)c2cc[nH]c2n1)C1CC1
stdout: < 20 nM

stdin: Give its IC50 value. Item: O=C(Nc1nc(-c2ccc(NS(=O)(=O)C3CCS(=O)(=O)C3)cc2)c2cc[nH]c2n1)C1CC1 (centres unmarked)
stdout: 20 to 200 nM

stdin: Give its IC50 value. Item: CCN1CCN(C(=O)Cc2ccc(-c3cc(NC(=O)C4CC4)nc4[nH]ccc34)cc2)CC1
stdout: > 200 nM

stdin: Give its IC50 value. Item: CC1CN(C(=O)c2cc(F)cc(F)c2)CC=C1c1cc(NC(=O)C2CC2)nc2[nH]ccc12 (centres unmarked)
stdout: 20 to 200 nM

====

# assay.system: JAK1 (Homo sapiens (Human), UniProt P23458)
# procedure.text: Analysis of JAK1 activity inhibition ability (ADP-Glo Kinase Assay)
# Type: biochemical
# particulars: JAK1 enzyme, ADP-Glo luminescence, ATP 250 uM, IRS-itide substrate, 30° C. 40 minutes; read-out: IC50
endpoint.label: IC50

Recorded results for 3 compounds are shown here.
>>> observed("O=C(Nc1cc(C2=CC3CCCC(C2)N3C(=O)c2ccncc2F)c2cc[nH]c2n1)C1CC1 (stereo not shown)")
"20 to 200 nM"
>>> observed("O=C(Nc1cc(C2=CCN(C(=O)N3CCS(=O)(=O)CC3)CC2)c2cc[nH]c2n1)C1CC1")
"20 to 200 nM"
>>> observed("Cc1ncsc1C(=O)N1CC=C(c2cc(NC(=O)C3CC3)nc3[nH]ccc23)C(C)C1 (stereo not shown)")
"20 to 200 nM"

Field: next compound
stdin: Give its IC50 value. Item: O=C(Nc1cc(C2=CCN(C(=O)c3cnsc3)CC2)c2cc[nH]c2n1)C1CC1
stdout: < 20 nM
